ASSAY_SYSTEM: Cin5 (UniProt P40917)
Sequence: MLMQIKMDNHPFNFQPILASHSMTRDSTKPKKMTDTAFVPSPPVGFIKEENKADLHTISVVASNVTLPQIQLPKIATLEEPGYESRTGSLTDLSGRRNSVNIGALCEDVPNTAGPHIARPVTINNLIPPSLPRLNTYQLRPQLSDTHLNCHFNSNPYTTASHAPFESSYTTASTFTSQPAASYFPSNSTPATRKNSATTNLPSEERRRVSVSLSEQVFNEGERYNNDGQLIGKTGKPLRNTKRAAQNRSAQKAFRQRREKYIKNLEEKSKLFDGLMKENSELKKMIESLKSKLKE
PROTOCOL_SUMMARY: PBM E-score (8-mer binding enrichment) (E-score (-0.5 to 0.5)); higher = stronger / more preferred TF binding
STUDY_CONDITIONS: protein concentration: 100 nM; construct: GST-full length
Over roughly 33,000 sequences, “E-score (-0.5 to 0.5)” has its median near -0.0059; the highest 2% begin near 0.26. Shown is part of a subset that was picked to be rich in the highest values.
If the reported PBM E-score equals or exceeds 0.1, assign condition met. If not, assign condition not met.

>  <PRIMARY_SEQUENCE>
ACATATTA

>  <CLASS_NAME>
condition met

$$$$
>  <PRIMARY_SEQUENCE>
CAATTATC

>  <CLASS_NAME>
condition met

$$$$
>  <PRIMARY_SEQUENCE>
ATATATTC

>  <CLASS_NAME>
condition met

$$$$
>  <PRIMARY_SEQUENCE>
ATAATATA

>  <CLASS_NAME>
condition met

$$$$
>  <PRIMARY_SEQUENCE>
CTATATTC

>  <CLASS_NAME>
condition not met

$$$$
>  <PRIMARY_SEQUENCE>
CATAATTC

>  <CLASS_NAME>
condition met

$$$$
>  <PRIMARY_SEQUENCE>
CATGCTTC

>  <CLASS_NAME>
condition not met

$$$$
>  <PRIMARY_SEQUENCE>
ACGGAACA

>  <CLASS_NAME>
condition met

$$$$
>  <PRIMARY_SEQUENCE>
ACCAAGCC

>  <CLASS_NAME>
condition not met

$$$$
>  <PRIMARY_SEQUENCE>
CCATTATC

>  <CLASS_NAME>
condition not met

$$$$
>  <PRIMARY_SEQUENCE>
CTCCGCTA

>  <CLASS_NAME>
condition not met

$$$$
>  <PRIMARY_SEQUENCE>
CGGGCCTA

>  <CLASS_NAME>
condition not met

$$$$
>  <PRIMARY_SEQUENCE>
ATATATTG

>  <CLASS_NAME>
condition not met

$$$$
>  <PRIMARY_SEQUENCE>
GTTACGTA

>  <CLASS_NAME>
condition met

$$$$
>  <PRIMARY_SEQUENCE>
CCTAATTA

>  <CLASS_NAME>
condition not met

$$$$
>  <PRIMARY_SEQUENCE>
AGATACAT

>  <CLASS_NAME>
condition met

$$$$
>  <PRIMARY_SEQUENCE>
CTGCTGAC

>  <CLASS_NAME>
condition met

$$$$
>  <PRIMARY_SEQUENCE>
ACTACGTC

>  <CLASS_NAME>
condition not met

$$$$
>  <PRIMARY_SEQUENCE>
ATATATTA

>  <CLASS_NAME>
condition met

$$$$
>  <PRIMARY_SEQUENCE>
ATAATAAA

>  <CLASS_NAME>
condition met

$$$$
>  <PRIMARY_SEQUENCE>
CGGCCAAG

>  <CLASS_NAME>
condition not met

$$$$
>  <PRIMARY_SEQUENCE>
ATTATAAA

>  <CLASS_NAME>
condition met

$$$$
>  <PRIMARY_SEQUENCE>
AGTACGTG

>  <CLASS_NAME>
condition not met

$$$$
>  <PRIMARY_SEQUENCE>
TAAAATAA

>  <CLASS_NAME>
condition met

$$$$
>  <PRIMARY_SEQUENCE>
ATAATATC

>  <CLASS_NAME>
condition met

$$$$
>  <PRIMARY_SEQUENCE>
CTATAATA

>  <CLASS_NAME>
condition met

$$$$
>  <PRIMARY_SEQUENCE>
AGCGGCTG

>  <CLASS_NAME>
condition not met

$$$$
>  <PRIMARY_SEQUENCE>
CCTGAAAA

>  <CLASS_NAME>
condition not met

$$$$
>  <PRIMARY_SEQUENCE>
CTAATATA

>  <CLASS_NAME>
condition not met

$$$$
>  <PRIMARY_SEQUENCE>
AATGCTTA

>  <CLASS_NAME>
condition met

$$$$
>  <PRIMARY_SEQUENCE>
AGTGCCGC

>  <CLASS_NAME>
condition not met

$$$$
>  <PRIMARY_SEQUENCE>
CGTGTTGA

>  <CLASS_NAME>
condition not met

$$$$
>  <PRIMARY_SEQUENCE>
AATGCTGA

>  <CLASS_NAME>
condition met

$$$$
>  <PRIMARY_SEQUENCE>
CGAACAAA

>  <CLASS_NAME>
condition met

$$$$
>  <PRIMARY_SEQUENCE>
GTAAATAA

>  <CLASS_NAME>
condition met

$$$$
>  <PRIMARY_SEQUENCE>
ATAAATAC

>  <CLASS_NAME>
condition met

$$$$
>  <PRIMARY_SEQUENCE>
ATTATAAG

>  <CLASS_NAME>
condition met

$$$$
>  <PRIMARY_SEQUENCE>
CACGGGGG

>  <CLASS_NAME>
condition not met

$$$$
>  <PRIMARY_SEQUENCE>
ACAATATA

>  <CLASS_NAME>
condition met

$$$$
>  <PRIMARY_SEQUENCE>
CTAAATAA

>  <CLASS_NAME>
condition not met

$$$$
>  <PRIMARY_SEQUENCE>
GAGAAGAC

>  <CLASS_NAME>
condition not met

$$$$
>  <PRIMARY_SEQUENCE>
GATGGTAC

>  <CLASS_NAME>
condition not met

$$$$
>  <PRIMARY_SEQUENCE>
CGACGAAG

>  <CLASS_NAME>
condition not met

$$$$
>  <PRIMARY_SEQUENCE>
ATGCTTAC

>  <CLASS_NAME>
condition met

$$$$
>  <PRIMARY_SEQUENCE>
CTGCTTCC

>  <CLASS_NAME>
condition not met

$$$$
>  <PRIMARY_SEQUENCE>
GGAACAAA

>  <CLASS_NAME>
condition met

$$$$
>  <PRIMARY_SEQUENCE>
ACAATAAC

>  <CLASS_NAME>
condition met

$$$$
>  <PRIMARY_SEQUENCE>
ACTGCCCC

>  <CLASS_NAME>
condition not met

$$$$
>  <PRIMARY_SEQUENCE>
CATGCTTA

>  <CLASS_NAME>
condition met

$$$$
>  <PRIMARY_SEQUENCE>
CAATTATA

>  <CLASS_NAME>
condition met

$$$$
>  <PRIMARY_SEQUENCE>
ACAATAAT

>  <CLASS_NAME>
condition met

$$$$
>  <PRIMARY_SEQUENCE>
TACCCATA

>  <CLASS_NAME>
condition not met

$$$$
>  <PRIMARY_SEQUENCE>
GCATTCCA

>  <CLASS_NAME>
condition not met

$$$$
>  <PRIMARY_SEQUENCE>
AAACCAAT

>  <CLASS_NAME>
condition met

$$$$
>  <PRIMARY_SEQUENCE>
CATGCTGA

>  <CLASS_NAME>
condition met

$$$$
>  <PRIMARY_SEQUENCE>
AATCGAGA

>  <CLASS_NAME>
condition met

$$$$
>  <PRIMARY_SEQUENCE>
ACTATAAA

>  <CLASS_NAME>
condition met

$$$$
>  <PRIMARY_SEQUENCE>
GTTACGGA

>  <CLASS_NAME>
condition not met

$$$$
>  <PRIMARY_SEQUENCE>
CCACCTCC

>  <CLASS_NAME>
condition not met

$$$$
>  <PRIMARY_SEQUENCE>
GTATAATA

>  <CLASS_NAME>
condition met

$$$$
>  <PRIMARY_SEQUENCE>
GACAGTCA

>  <CLASS_NAME>
condition not met

$$$$
>  <PRIMARY_SEQUENCE>
CCATATTA

>  <CLASS_NAME>
condition met

$$$$
>  <PRIMARY_SEQUENCE>
GTAATATA

>  <CLASS_NAME>
condition met

$$$$
>  <PRIMARY_SEQUENCE>
CGAACAAG

>  <CLASS_NAME>
condition not met

$$$$
>  <PRIMARY_SEQUENCE>
AAGAGTCA

>  <CLASS_NAME>
condition not met

$$$$
>  <PRIMARY_SEQUENCE>
CCCGGAGG

>  <CLASS_NAME>
condition not met

$$$$
>  <PRIMARY_SEQUENCE>
GGAACAAC

>  <CLASS_NAME>
condition not met

$$$$
>  <PRIMARY_SEQUENCE>
CTATATTA

>  <CLASS_NAME>
condition met

$$$$
>  <PRIMARY_SEQUENCE>
CTGCTTAC

>  <CLASS_NAME>
condition met

$$$$
>  <PRIMARY_SEQUENCE>
AATAATTC

>  <CLASS_NAME>
condition met

$$$$
>  <PRIMARY_SEQUENCE>
AATAATTG

>  <CLASS_NAME>
condition not met

$$$$
>  <PRIMARY_SEQUENCE>
GCATCGGC

>  <CLASS_NAME>
condition not met

$$$$
>  <PRIMARY_SEQUENCE>
ACAATAAA

>  <CLASS_NAME>
condition met

$$$$
>  <PRIMARY_SEQUENCE>
TTAAATAA

>  <CLASS_NAME>
condition met

$$$$
>  <PRIMARY_SEQUENCE>
CCCACGTA

>  <CLASS_NAME>
condition not met

$$$$
>  <PRIMARY_SEQUENCE>
ATTACGTC

>  <CLASS_NAME>
condition met

$$$$
>  <PRIMARY_SEQUENCE>
ATGCTATC

>  <CLASS_NAME>
condition not met

$$$$
>  <PRIMARY_SEQUENCE>
CTGCTGAA

>  <CLASS_NAME>
condition not met

$$$$
>  <PRIMARY_SEQUENCE>
TACAATCA

>  <CLASS_NAME>
condition met

$$$$
>  <PRIMARY_SEQUENCE>
CCAATATA

>  <CLASS_NAME>
condition not met

$$$$
>  <PRIMARY_SEQUENCE>
ACTATAAT

>  <CLASS_NAME>
condition met

$$$$
>  <PRIMARY_SEQUENCE>
CTGCTTAA

>  <CLASS_NAME>
condition not met

$$$$
>  <PRIMARY_SEQUENCE>
GACTCTCC

>  <CLASS_NAME>
condition not met

$$$$
>  <PRIMARY_SEQUENCE>
GAAAGATA

>  <CLASS_NAME>
condition met

$$$$
>  <PRIMARY_SEQUENCE>
GATAATTA

>  <CLASS_NAME>
condition met

$$$$
>  <PRIMARY_SEQUENCE>
GTATATTA

>  <CLASS_NAME>
condition met

$$$$
>  <PRIMARY_SEQUENCE>
ATGCTTTA

>  <CLASS_NAME>
condition not met

$$$$
>  <PRIMARY_SEQUENCE>
AGATAACT

>  <CLASS_NAME>
condition met

$$$$
